Data origin: patent US20100168038A1

# tested.target: TPP II (Mus musculus, UniProt Q64514)
# Construct: 1 ug of high molecular weight protein was used as enzyme in peptidase assays; endogenous in cells
# Sequence (Q64514 2-1262 limits assumed): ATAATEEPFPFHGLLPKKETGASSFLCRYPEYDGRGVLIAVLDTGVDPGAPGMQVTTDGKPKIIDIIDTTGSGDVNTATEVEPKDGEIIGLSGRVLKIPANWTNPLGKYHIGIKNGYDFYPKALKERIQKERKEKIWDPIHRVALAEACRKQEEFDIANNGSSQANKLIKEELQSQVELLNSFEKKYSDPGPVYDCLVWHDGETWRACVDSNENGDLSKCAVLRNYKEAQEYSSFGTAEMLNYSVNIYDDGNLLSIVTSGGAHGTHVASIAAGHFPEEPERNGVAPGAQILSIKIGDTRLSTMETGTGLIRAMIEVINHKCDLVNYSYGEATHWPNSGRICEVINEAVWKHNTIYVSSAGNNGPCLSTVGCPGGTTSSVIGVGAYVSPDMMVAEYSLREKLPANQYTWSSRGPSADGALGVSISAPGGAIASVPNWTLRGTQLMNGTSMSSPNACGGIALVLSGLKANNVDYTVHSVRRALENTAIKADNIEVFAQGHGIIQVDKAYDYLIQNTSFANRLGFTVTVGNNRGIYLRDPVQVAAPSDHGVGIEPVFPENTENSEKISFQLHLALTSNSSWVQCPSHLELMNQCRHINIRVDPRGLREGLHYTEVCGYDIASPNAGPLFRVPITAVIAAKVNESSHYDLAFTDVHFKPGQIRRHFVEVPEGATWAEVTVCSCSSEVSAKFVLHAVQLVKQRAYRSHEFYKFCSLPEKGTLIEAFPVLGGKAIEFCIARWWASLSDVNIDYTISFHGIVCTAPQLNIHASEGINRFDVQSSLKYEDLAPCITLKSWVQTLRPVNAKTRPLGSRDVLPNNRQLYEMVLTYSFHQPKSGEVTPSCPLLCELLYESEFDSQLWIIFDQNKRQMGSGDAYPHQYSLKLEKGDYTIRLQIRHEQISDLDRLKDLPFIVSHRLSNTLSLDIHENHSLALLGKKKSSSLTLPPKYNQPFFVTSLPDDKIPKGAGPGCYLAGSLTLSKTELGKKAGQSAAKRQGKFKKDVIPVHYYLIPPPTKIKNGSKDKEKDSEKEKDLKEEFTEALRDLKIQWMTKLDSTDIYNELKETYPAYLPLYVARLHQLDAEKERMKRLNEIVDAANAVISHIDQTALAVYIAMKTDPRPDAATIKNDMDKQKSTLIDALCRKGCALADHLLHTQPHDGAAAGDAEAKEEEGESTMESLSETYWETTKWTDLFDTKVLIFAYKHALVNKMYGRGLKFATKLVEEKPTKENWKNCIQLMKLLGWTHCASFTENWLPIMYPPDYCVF
# experimental.details: TPP II peptidase assay: cleavage of fluorogenic substrate AAF-AMC by enriched TPP II
# reported.conditions: partially purified TPPII enzyme, fluorimetry; read-out: Ki50, inhibited TPPII cleavage of the substrate AAF-AMC
pKi: −log10 of the molar value. Residues, ends and D or L forms follow the SMILES beside them.
parameter: pKi

## Task Hello, I am looking for reported pKi with TPP II (Mus musculus, UniProt Q64514) for CC(C)C[C@H](NC(=O)CNC(=O)OCc1ccccc1)C(=O)N[C@@H](C)C(=O)O [Z-GLA-OH, Z-Gly-Leu-Ala-OH] (HELM PEPTIDE1{[O=C(OCc1ccccc1)[*:2]].G.L.A}$$$$V2.0) . Could you help?
## Result ~8.00
